log10 IC50 values, listed per item
target: human HDAC3/SMRT heterodimer (Homo sapiens (Human)); experiment: biochemical
Sequence (O15379 whole entry): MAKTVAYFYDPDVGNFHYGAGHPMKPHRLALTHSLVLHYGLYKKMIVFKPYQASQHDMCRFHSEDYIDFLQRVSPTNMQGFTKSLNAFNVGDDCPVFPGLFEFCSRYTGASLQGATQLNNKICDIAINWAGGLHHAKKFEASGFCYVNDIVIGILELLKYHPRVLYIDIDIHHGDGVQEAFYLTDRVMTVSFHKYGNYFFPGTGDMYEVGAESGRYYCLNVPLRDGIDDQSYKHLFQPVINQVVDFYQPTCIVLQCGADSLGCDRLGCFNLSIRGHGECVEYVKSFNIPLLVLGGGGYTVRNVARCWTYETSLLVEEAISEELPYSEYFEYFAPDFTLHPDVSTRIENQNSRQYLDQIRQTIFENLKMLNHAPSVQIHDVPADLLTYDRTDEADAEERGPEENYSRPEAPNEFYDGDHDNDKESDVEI
Sequence (Q9Y618 1-899 partner): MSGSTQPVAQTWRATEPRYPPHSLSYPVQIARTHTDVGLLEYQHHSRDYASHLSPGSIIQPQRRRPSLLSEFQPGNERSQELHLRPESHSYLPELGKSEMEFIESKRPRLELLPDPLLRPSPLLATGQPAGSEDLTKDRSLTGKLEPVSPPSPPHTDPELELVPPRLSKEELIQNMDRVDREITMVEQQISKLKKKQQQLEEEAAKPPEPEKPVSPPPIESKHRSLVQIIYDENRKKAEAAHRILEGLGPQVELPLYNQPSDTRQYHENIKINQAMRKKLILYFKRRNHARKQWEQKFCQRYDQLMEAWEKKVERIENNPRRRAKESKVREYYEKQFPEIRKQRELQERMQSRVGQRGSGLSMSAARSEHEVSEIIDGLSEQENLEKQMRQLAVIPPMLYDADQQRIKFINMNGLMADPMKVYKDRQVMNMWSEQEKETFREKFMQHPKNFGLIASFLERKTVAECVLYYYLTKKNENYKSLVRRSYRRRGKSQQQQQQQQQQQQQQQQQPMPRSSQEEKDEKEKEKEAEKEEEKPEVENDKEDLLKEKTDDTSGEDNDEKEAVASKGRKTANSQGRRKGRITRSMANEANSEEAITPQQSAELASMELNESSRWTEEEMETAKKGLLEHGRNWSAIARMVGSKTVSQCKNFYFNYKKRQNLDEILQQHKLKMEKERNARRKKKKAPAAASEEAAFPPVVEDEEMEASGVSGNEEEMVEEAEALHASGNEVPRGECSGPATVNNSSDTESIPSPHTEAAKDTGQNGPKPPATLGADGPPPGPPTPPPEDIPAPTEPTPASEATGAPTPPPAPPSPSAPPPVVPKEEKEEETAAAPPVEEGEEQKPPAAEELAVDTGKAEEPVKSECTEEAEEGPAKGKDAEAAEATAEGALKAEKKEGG
Recorded IC50 (log10, nM)

Study these solved cases before continuing.
So for `CN(C)CC(=O)N[C@@H](CCCCCC(=O)c1ncco1)c1oc(-c2ccc(F)cc2)nc1C#N` , the logged log10 IC50 turned out to be 0.51

So for `N[C@@H](CCCCCC(=O)c1ncco1)c1ncc(-c2ccc3ncccc3c2)[nH]1` , the logged log10 IC50 turned out to be 0.41

So for `Cc1ccc2cc(-c3cnc([C@H](CCCCCC(=O)c4ncco4)N4CCOCC4)[nH]3)ccc2n1` , the logged log10 IC50 turned out to be 1.49

So for `O=C1CC[C@](CCCCCC(=O)c2ncco2)(c2ncc(-c3ccc(F)cc3)[nH]2)N1` , the logged log10 IC50 turned out to be 0.34

So for `CN1CC(C(=O)N[C@@H](CCCCCC(=O)c2ccon2)c2[nH]c(-c3ccccc3F)nc2Cl)C1` , the logged log10 IC50 turned out to be -1.34

// moving on: another record for log10 IC50
So for `CN(C)CC(=O)N[C@@H](CCCCCC(=O)c1ncco1)c1[nH]c(-c2ccc(F)cc2)nc1C#N` , the logged log10 IC50 turned out to be -0.41
